target: Pantothenate synthetase (Mycobacterium tuberculosis (strain ATCC 25618 / H37Rv)) (UniProt P9WIL5); experiment: Coupled enzyme confirmation of inhibitors against recombinant Mtb PanC (AID 375); conditions: coupled enzyme assay; at 10 µM, active compounds read high;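 note: 0% = full reaction with vehicle and 100% = no enzyme background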
Sequence (P9WIL5 whole entry, looked up): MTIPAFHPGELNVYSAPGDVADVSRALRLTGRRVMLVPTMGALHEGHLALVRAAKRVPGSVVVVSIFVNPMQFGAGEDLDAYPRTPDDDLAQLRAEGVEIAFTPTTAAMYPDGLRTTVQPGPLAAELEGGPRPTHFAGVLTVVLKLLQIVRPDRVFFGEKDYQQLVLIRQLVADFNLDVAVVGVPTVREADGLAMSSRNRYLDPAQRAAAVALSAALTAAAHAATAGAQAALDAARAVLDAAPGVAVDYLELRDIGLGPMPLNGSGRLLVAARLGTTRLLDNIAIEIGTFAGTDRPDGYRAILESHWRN
Listed compounds paired with reported inhibition
OBSERVABLE: inhibition (%)

# COMPOUND, UNIT ABBREV, ENDPOINT VALUE
rows = [
    ("COC(=O)C1=C(C)NC(C)=C(C(=O)OC)C1c1ccccc1[N+](=O)[O-]", "%", 0),
    ("COc1cccc(N2C(=O)C(O)=C(C(C)=O)C2c2ccc(OC)c(OC)c2)c1 (stereo not given)", "%", 0),
    ("O=C(CSc1ncnc2ccccc12)NCCCO", "%", 0),
    ("COc1ccccc1N1CCN(CC(O)COc2cccc3ccccc23)CC1 (stereo not given)", "%", 3),
    ("CCSc1nnc(NC(=O)c2csc(C)c2)s1", "%", 1),
    ("COC(=O)C(C)Sc1nnc2n(-c3cccc(C)c3)c(=O)c3c4c(sc3n12)CCCC4 (stereo not given)", "%", 1),
    ("CCOc1ccccc1CN(Cc1ccco1)S(=O)(=O)c1ccc(-n2cnnn2)c(OC)c1", "%", 8),
    ("O/N=C/c1ccc(OCC(O)COc2ccc(/C=N/O)cc2)cc1", "%", 0),
    ("Cc1nc(C)c(C(=O)Nc2ccc(C)c(F)c2)o1", "%", 5),
    ("COc1cccc(C(=O)CSc2nnc(COc3cccc4cccnc34)o2)c1", "%", 0),
    ("CCCCCC1CC(CC(C)C(=O)Nc2nncs2)C(=O)O1 (stereo not given)", "%", 9),
    ("Cc1ccc(-n2c(Cn3cnc4ccccc43)nnc2SCC(=O)O)cc1", "%", 0),
    ("Cc1ccc(C(c2sc3nc(C)nn3c2O)N2CC(C)OC(C)C2)cc1 (stereo not given)", "%", 0),
    ("CCn1cc(C2=NOC(C(=O)Nc3c(C)nn(Cc4ccc(F)cc4)c3C)C2)c(C)n1 (stereo not given)", "%", 0),
    ("COC(=O)c1ccccc1NC(=O)Cn1c(-c2nonc2N)nc2ccccc21", "%", 0),
    ("COc1ccc(-c2nnc(-c3cccs3)o2)cc1OC", "%", 0),
    ("Fc1ccc(NCc2nnc(SCc3nnc(-c4ccccc4)o3)n2CC2CCCO2)cc1 (stereo not given)", "%", 0),
    ("COc1cccc(C=Nc2ccc3c(c2)OCCO3)c1O", "%", 3),
    ("c1ccc(Cn2nnnc2CN2CCN(c3ncccn3)CC2)cc1", "%", 1),
    ("C=C(C)Cn1c(-c2ccccc2)nc2ccccc21", "%", 0),
    ("C=CCn1c(-c2cccs2)nc2nc3ccccc3nc21", "%", 0),
    ("CC(=O)OC1c2ccccc2C(=O)N1Cc1ccccc1Cl (stereo not given)", "%", 0),
    ("O=C(CSc1nnc(Cc2cccs2)n1Cc1ccco1)Nc1cccc(Cl)c1", "%", 0),
    ("CCCC(NC(=O)c1ccccc1)c1nc2ccccc2n1Cc1ccc(C(=O)OC)o1 (stereo not given)", "%", 0),
    ("CCCCN(CCCC)C(=O)CN(C)S(=O)(=O)c1ccc2c(c1)n(C)c(=O)c(=O)n2C", "%", 5),
    ("COc1ccc(-c2nc(C(N)=O)c3[nH]c(=O)n(-c4cccc(Cl)c4)c3n2)cc1OC", "%", 1),
    ("O=C(c1ccccc1)c1coc2ccc(O)c(CN3CCOCC3)c12", "%", 4),
    ("Cc1nn(C)c(C)c1S(=O)(=O)N1CCCC(C(=O)N2CCN(c3ccc(Cl)cc3)CC2)C1 (stereo not given)", "%", 0),
    ("COc1ccccc1OCCOc1ccccc1/C=N/n1cnnc1", "%", 6),
    ("CC(C(=O)OCn1nnc2ccccc2c1=O)N1C(=O)c2ccccc2C1=O (stereo not given)", "%", 0),
    ("CC(=O)Nc1ccn(-c2ccccc2)n1", "%", 2),
    ("Cc1ccc(S(=O)(=O)N2CCN(C(=O)CN3CCOCC3)C2C(C)C)cc1 (stereo not given)", "%", 0),
    ("CCOC(=O)/C=C1\\SCC(=O)N1Cc1nnc(-c2ccccc2Br)o1", "%", 0),
    ("COc1ccc(-n2cc(-c3ccccc3)c3c(N4CCN(CCO)CC4)ncnc32)cc1", "%", 0),
    ("CCOc1cc(C(=O)N(C)c2ccccc2)cc(OCC)c1OCC", "%", 1),
    ("C=CCn1c(O)c(C(C)=NCc2cccnc2)c(=O)[nH]c1=O", "%", 0),
    ("COc1cccc(-c2noc(CCC(=O)NC3CCCCC3)n2)c1", "%", 1),
    ("COc1ccc2c(c1)CCc1c(C(=O)NCc3cccnc3)noc1-2", "%", 0),
    ("CCCC(CCC)C(=O)OC1C[C@H]2CC[C@@H](C1)[N+]2(C)C (stereo not given in full)", "%", 0),
    ("Clc1ccc(OCc2nnc(SCCN3CCCCC3)n2Cc2ccco2)cc1", "%", 0),
    ("O=C(NCCCN1CCOCC1)c1cc(-c2ccc(O)cc2)on1", "%", 0),
    ("COc1ccccc1CN(Cc1nc2ccccc2c(=O)[nH]1)C(=O)Nc1ccccc1", "%", 0),
    ("CCCCOCCCNC(=O)c1ccc(NC(C)=O)cc1", "%", 0),
    ("CCOC(=O)C(O)(c1ccc(N(CC)C(=O)OC)cc1)C(F)(F)F (stereo not given)", "%", 0),
    ("CCOC(=O)c1sc(NC(=O)CSc2ncn(-c3ccccc3)n2)nc1C", "%", 3),
]
